MEASURED TARGET: Caspase-7 (Homo sapiens)
RUN DESCRIPTION: Kinetic compound screening, progress curve method, caspase-7
Assay type: biochemical
CONDITIONS USED: Table III; Ki(app) = Kass or Kobs/I; 5 nM active caspase-7
# maps each entry to its Ki(app) Caspase-7
OBSERVED PROPERTY: Ki(app) Caspase-7

COMPOUND | RESULT
Cc1cccc(C)c1C(=O)OCC(=O)[C@H](CC(=O)O)NC(=O)C1CCCN1C(=O)[C@@H](CCC(=O)O)NC(=O)[C@H](CC(=O)O)NC(=O)Cc1ccc(O)c([N+](=O)[O-])c1 (stereo partly drawn) | 199,341 M^−1s^−1
Cc1cccc(C)c1C(=O)OCC(=O)[C@H](CC(=O)O)NC(=O)[C@H](Cc1cc[nH]c1)NC(=O)[C@H](CCC(=O)O)NC(=O)[C@H](CC(C)C)NC(=O)Cc1ccc(O)c([N+](=O)[O-])c1 | 10,447 M^−1s^−1
Cc1cccc(C)c1C(=O)OCC(=O)[C@H](CC(=O)O)NC(=O)[C@H](C)NC(=O)[C@H](CC(C)C)NC(=O)C1CCCN1C(=O)Cc1ccc([N+](=O)[O-])c(O)c1 (stereo partly drawn) | 27,814 M^−1s^−1
CC[C@H](NC(=O)[C@@H](CCC(=O)O)NC(=O)c1ccccc1N)C(=O)N[C@@H](CC(=O)O)C(=O)COC(=O)c1c(C)cccc1C | 272,619 M^−1s^−1
CCC(C)C(NC(=O)Cc1ccc(O)c([N+](=O)[O-])c1)C(=O)NC(Cc1ccccc1)C(=O)N1CCCC1C(=O)N[C@@H](CC(=O)O)C(=O)COC(=O)c1c(C)cccc1C (stereo partly drawn) | 42,594 M^−1s^−1
Cc1cccc(C)c1C(=O)OCC(=O)[C@H](CC(=O)O)NC(=O)[C@@H](NC(=O)[C@H](Cc1ccccn1)NC(=O)[C@H](Cc1ccc2ccccc2c1)NC(=O)Cc1ccc(O)c([N+](=O)[O-])c1)C(C)C | 24,185 M^−1s^−1
Cc1cccc(C)c1C(=O)OCC(=O)[C@H](CC(=O)O)NC(=O)[C@@H](NC(=O)[C@H](CCC(=O)O)NC(=O)[C@H](Cc1ccc(I)cc1)NC(=O)Cc1ccc(O)c([N+](=O)[O-])c1)C1Cc2ccccc2C1 | 42,994 M^−1s^−1
Cc1cccc(C)c1C(=O)OCC(=O)[C@H](CC(=O)O)NC(=O)[C@@H](NC(=O)[C@H](CCC(=O)O)NC(=O)[C@H](Cc1ccc(I)cc1)NC(=O)Cc1ccc(O)c([N+](=O)[O-])c1)C(C)O (stereo partly drawn) | 234,945 M^−1s^−1
Cc1cccc(C)c1C(=O)OCC(=O)[C@H](CC(=O)O)NC(=O)[C@@H](NC(=O)[C@H](CCC(=O)O)NC(=O)[C@H](CC(C)C)NC(=O)Cc1ccc(O)c([N+](=O)[O-])c1)C(C)O (stereo partly drawn) | 19,424 M^−1s^−1

----------
# maps each entry to its Caspase-3 Ki(app)
MEASURED TARGET: Caspase-3 (Homo sapiens, UniProt P42574)
Sequence (P42574 29-175 limits assumed): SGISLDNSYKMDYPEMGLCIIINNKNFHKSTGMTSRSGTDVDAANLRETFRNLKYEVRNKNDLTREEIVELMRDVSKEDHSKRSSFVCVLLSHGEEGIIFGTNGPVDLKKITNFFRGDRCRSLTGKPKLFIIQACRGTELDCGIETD
Sequence (P42574 176-277 limits assumed): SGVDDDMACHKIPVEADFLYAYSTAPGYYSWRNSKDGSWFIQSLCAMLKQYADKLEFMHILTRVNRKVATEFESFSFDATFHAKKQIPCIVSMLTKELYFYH
RUN DESCRIPTION: Kinetic compound screening, progress curve method, caspase-3
Format: biochemical
CONDITIONS USED: Table IV

COMPOUND | Caspase-3 Ki(app)
Cc1cccc(C)c1C(=O)OCC(=O)[C@H](CC(=O)O)NC(=O)[C@@H](NC(=O)[C@H](CCC(=O)O)NC(=O)[C@H](Cc1ccc(I)cc1)NC(=O)Cc1ccc(O)c([N+](=O)[O-])c1)C1Cc2ccccc2C1 [AB19, NP-31-E-23-D-DMBA] | 179,086 M-1s-1
Cc1cccc(C)c1C(=O)OCC(=O)[C@H](CC(=O)O)NC(=O)[C@@H](NC(=O)[C@H](CCC(=O)O)NC(=O)[C@H](CC(=O)O)NC(=O)Cc1ccc(O)c([N+](=O)[O-])c1)C(C)C [AB09, Np-D-E- V-D-DMBA] | 10,922,261 M-1s-1
Cc1ccc(C[C@@H](NC(=O)[C@H](CC(=O)O)NC(=O)Cc2ccc(O)c([N+](=O)[O-])c2)C(=O)N[C@H](C(=O)N[C@@H](CC(=O)O)C(=O)COC(=O)c2c(C)cccc2C)C(C)C)cc1 [AB31, Np-D-30-V-D-DMBA] | 64,873 M-1s-1

----------
MEASURED TARGET: Caspase-9 (Homo sapiens)
Sequence (P55211 whole entry): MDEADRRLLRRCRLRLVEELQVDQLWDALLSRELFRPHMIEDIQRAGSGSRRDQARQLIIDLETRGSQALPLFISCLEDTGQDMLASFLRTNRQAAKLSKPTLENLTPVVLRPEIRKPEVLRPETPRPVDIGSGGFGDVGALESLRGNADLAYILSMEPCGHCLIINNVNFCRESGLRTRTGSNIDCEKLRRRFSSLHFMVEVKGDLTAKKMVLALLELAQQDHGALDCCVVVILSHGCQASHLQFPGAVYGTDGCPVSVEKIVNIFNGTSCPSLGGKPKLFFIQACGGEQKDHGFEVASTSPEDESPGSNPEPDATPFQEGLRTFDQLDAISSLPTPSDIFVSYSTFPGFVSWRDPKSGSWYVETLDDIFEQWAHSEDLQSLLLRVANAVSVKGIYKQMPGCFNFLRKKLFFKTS
RUN DESCRIPTION: Kinetic compound screening, progress curve method, caspase-9
Format: biochemical
CONDITIONS USED: Table III; Ki(app) = Kass or Kobs/I; 50 nM active caspase-9; NI = no inhibition at concentrations tested
Residues, ends and D or L forms follow the SMILES beside them. *: point of attachment. Cbz = O=C(OCc1ccccc1)*; CH2F = FC*
# maps each entry to its Ki(app) Caspase-9
OBSERVED PROPERTY: Ki(app) Caspase-9

COMPOUND | RESULT
Cc1cccc(C)c1C(=O)OCC(=O)[C@H](CC(=O)O)NC(=O)C1CCCN1C(=O)[C@@H](CCC(=O)O)NC(=O)[C@H](CC(=O)O)NC(=O)Cc1ccc(O)c([N+](=O)[O-])c1 (stereo partly drawn) [AB11, NP-D-E- P-D-DMBA] | 47,362 M^−1s^−1
CCC(C)C(NC(=O)Cc1ccc(O)c([N+](=O)[O-])c1)C(=O)N[C@@H](CC(C)C)C(=O)N[C@@H](C)C(=O)N[C@@H](CC(=O)O)C(=O)COC(=O)c1c(C)cccc1C (stereo partly drawn) [AB40, Np-I-L- A-D-AOMK] | 48,867 M^−1s^−1
COC(=O)C[C@H](NC(=O)[C@H](C)NC(=O)[C@@H](NC(=O)OCc1ccccc1)C(C)C)C(=O)CF [ZVAD-fmk, reference compound] (Cbz-Val-Ala-Asp(OMe)-CH2F) | <5,000 M^−1s^−1
CCC(C)C(NC(=O)Cc1ccc(O)c([N+](=O)[O-])c1)C(=O)N[C@@H](CC(C)C)C(=O)N1CSCC1C(=O)N[C@@H](CC(=O)O)C(=O)COC(=O)c1c(C)cccc1C (stereo partly drawn) [AB41, Np-I-L-38-D-AOMK] | 35,779 M^−1s^−1
CC[C@H](NC(=O)[C@@H](CCC(=O)O)NC(=O)c1ccccc1N)C(=O)N[C@@H](CC(=O)O)C(=O)COC(=O)c1c(C)cccc1C [AB28, NH2-6-E-8-D-DMBA] | 300,767 M^−1s^−1

----------
MEASURED TARGET: Caspase-7 (Homo sapiens, UniProt P55210)
Sequence (P55210 1-303): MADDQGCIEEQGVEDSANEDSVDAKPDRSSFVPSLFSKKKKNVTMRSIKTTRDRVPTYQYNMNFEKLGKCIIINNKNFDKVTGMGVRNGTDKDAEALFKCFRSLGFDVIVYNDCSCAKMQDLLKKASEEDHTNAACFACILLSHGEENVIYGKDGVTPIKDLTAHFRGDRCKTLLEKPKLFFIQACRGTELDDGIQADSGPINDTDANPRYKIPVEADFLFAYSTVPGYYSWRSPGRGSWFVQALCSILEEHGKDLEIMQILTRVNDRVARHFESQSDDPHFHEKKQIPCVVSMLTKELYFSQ
RUN DESCRIPTION: Kinetic compound screening, progress curve method, caspase-7
Type: biochemical
CONDITIONS USED: Table IV
Residues, ends and D or L forms follow the SMILES beside them. *: point of attachment. Cbz = O=C(OCc1ccccc1)*; CH2F = FC*

MOLECULE | Caspase-7 Ki (app)
Cc1cccc(C)c1C(=O)OCC(=O)[C@H](CC(=O)O)NC(=O)[C@@H](NC(=O)[C@H](CCC(=O)O)NC(=O)[C@H](Cc1ccc(I)cc1)NC(=O)Cc1ccc(O)c([N+](=O)[O-])c1)C(C)O (stereo partly drawn) | 234,945 M-1s-1
CCC(C)C(NC(=O)Cc1ccc(O)c([N+](=O)[O-])c1)C(=O)N[C@@H](CC(C)C)C(=O)N1CSCC1C(=O)N[C@@H](CC(=O)O)C(=O)COC(=O)c1c(C)cccc1C (stereo partly drawn) | 69,317 M-1s-1
Cc1cccc(C)c1C(=O)OCC(=O)[C@H](CC(=O)O)NC(=O)[C@@H](NC(=O)[C@H](Cc1ccncc1)NC(=O)[C@H](CC(=O)O)NC(=O)Cc1ccc(O)c([N+](=O)[O-])c1)C(C)C | 968,070 M-1s-1
CCC(C)C(NC(=O)Cc1ccc(O)c([N+](=O)[O-])c1)C(=O)N[C@@H](CC(C)C)C(=O)N[C@@H](C)C(=O)N[C@@H](CC(=O)O)C(=O)COC(=O)c1c(C)cccc1C (stereo partly drawn) | 11,256 M-1s-1
Cc1cccc(C)c1C(=O)OCC(=O)[C@H](CC(=O)O)NC(=O)[C@@H](NC(=O)[C@H](CCC(=O)O)NC(=O)[C@H](Cc1ccc(I)cc1)NC(=O)Cc1ccc(O)c([N+](=O)[O-])c1)C1Cc2ccccc2C1 | 42,994 M-1s-1
Cc1cccc(C)c1C(=O)OCC(=O)[C@H](CC(=O)O)NC(=O)[C@H](C)NC(=O)[C@H](CC(C)C)NC(=O)C1CCCN1C(=O)Cc1ccc([N+](=O)[O-])c(O)c1 (stereo partly drawn) | 27,814 M-1s-1
CC[C@H](NC(=O)[C@@H](CCC(=O)O)NC(=O)c1ccccc1N)C(=O)N[C@@H](CC(=O)O)C(=O)COC(=O)c1c(C)cccc1C | 272,619 M-1s-1
Cc1ccc(C[C@H](NC(=O)[C@H](CC(=O)O)NC(=O)Cc2ccc(O)c([N+](=O)[O-])c2)C(=O)N[C@H](C(=O)N[C@@H](CC(=O)O)C(=O)COC(=O)c2c(C)cccc2C)C(C)C)cc1 | 783,840 M-1s-1
Cc1cccc(C)c1C(=O)OCC(=O)[C@H](CC(=O)O)NC(=O)[C@@H](NC(=O)[C@@H](NC(=O)[C@H](CC(=O)O)NC(=O)Cc1ccc(O)c([N+](=O)[O-])c1)c1ccccc1)C(C)C | 279,519 M-1s-1
Cc1cccc(C)c1C(=O)OCC(=O)[C@H](CC(=O)O)NC(=O)[C@@H](NC(=O)[C@H](CCC(=O)O)NC(=O)[C@H](CC(C)C)NC(=O)Cc1ccc(O)c([N+](=O)[O-])c1)C(C)O (stereo partly drawn) | 19,424 M-1s-1
Cc1ccc(C[C@H](NC(=O)Cc2ccc(O)c([N+](=O)[O-])c2)C(=O)N[C@@H](CCC(=O)O)C(=O)N[C@H](C(=O)N[C@@H](CC(=O)O)C(=O)COC(=O)c2c(C)cccc2C)C(C)O)cc1 (stereo partly drawn) | 181,332 M-1s-1
CCC(C)C(NC(=O)Cc1ccc(O)c([N+](=O)[O-])c1)C(=O)NC(Cc1ccccc1)C(=O)N1CCCC1C(=O)N[C@@H](CC(=O)O)C(=O)COC(=O)c1c(C)cccc1C (stereo partly drawn) | 42,594 M-1s-1
Cc1cccc(C)c1C(=O)OCC(=O)[C@H](CC(=O)O)NC(=O)[C@@H](NC(=O)[C@H](Cc1ccccn1)NC(=O)[C@H](Cc1ccc2ccccc2c1)NC(=O)Cc1ccc(O)c([N+](=O)[O-])c1)C(C)C | 24,185 M-1s-1
COC(=O)C[C@H](NC(=O)[C@H](C)NC(=O)[C@@H](NC(=O)OCc1ccccc1)C(C)C)C(=O)CF [ZVAD-fmk, reference compound] (Cbz-Val-Ala-Asp(OMe)-CH2F) | <5,000 M-1s-1
Cc1cccc(C)c1C(=O)OCC(=O)[C@H](CC(=O)O)NC(=O)[C@@H](NC(=O)[C@H](CCC(=O)O)NC(=O)[C@H](CC(=O)O)NC(=O)Cc1ccc(O)c([N+](=O)[O-])c1)C(C)C | 1,529,040 M-1s-1
